Source: paper PMC11802874

- experiment notes: Pharmacokinetic study after single dose in C57BL/6N mice
- Format: in vivo, mouse
- experimental parameters: male, C57BL/6N, mouse, ip; Liver, 10 mg/kg
readout: half-life (h)
# output: bare number, implied unit h

Query (compound): NC(=O)c1cc(Cn2cc(-c3c(-c4ccc(Cl)cc4)nc4cc(F)ccn34)nn2)ccc1Cl [MI-883] ; field requested: half-life 2.53

----------
- experiment notes: Pharmacokinetic study after single dose in C57BL/6N mice
- Assay type: in vivo, mouse
- experimental parameters: male, C57BL/6N, mouse, plasma, 10 mg/kg; calculated from data after a single dose application; read-out: volume of distribution (Vd) in mice
readout: Vd (L)
Answer with a number only, understood to be in L.

Need Vd of NC(=O)c1cc(Cn2cc(-c3c(-c4ccc(Cl)cc4)nc4cc(F)ccn34)nn2)ccc1Cl [MI-883] , thanks. 0.06
